Measurement target: human RNR (histidine tagged human M1 and human M2 proteins) (Homo sapiens, UniProt P23921)
Sequence (P23921 whole entry): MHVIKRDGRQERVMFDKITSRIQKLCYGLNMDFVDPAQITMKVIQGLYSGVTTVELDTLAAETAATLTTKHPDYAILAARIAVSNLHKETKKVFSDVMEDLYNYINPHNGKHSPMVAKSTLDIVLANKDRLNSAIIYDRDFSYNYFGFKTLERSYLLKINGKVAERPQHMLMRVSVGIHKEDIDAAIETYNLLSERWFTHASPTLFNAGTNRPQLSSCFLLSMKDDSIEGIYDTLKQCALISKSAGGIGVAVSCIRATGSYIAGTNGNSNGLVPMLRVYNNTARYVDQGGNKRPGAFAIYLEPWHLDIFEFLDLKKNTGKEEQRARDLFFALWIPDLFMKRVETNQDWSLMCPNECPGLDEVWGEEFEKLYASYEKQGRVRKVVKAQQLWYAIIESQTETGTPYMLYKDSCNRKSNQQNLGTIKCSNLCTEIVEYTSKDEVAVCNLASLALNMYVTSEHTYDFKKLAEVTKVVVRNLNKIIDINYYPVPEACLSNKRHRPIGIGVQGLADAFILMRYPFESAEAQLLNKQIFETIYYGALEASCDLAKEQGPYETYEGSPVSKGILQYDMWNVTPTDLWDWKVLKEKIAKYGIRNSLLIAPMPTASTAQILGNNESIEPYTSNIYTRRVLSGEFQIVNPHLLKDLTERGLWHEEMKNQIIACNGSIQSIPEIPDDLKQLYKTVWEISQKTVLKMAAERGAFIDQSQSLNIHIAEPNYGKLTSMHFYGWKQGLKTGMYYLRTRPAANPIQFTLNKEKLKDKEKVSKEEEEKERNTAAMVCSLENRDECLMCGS
pIC50: −log10 of the molar value.
Catalogue of compounds with associated pIC50
Experimental readout: pIC50

INSERT INTO assay_data (compound, experimental_readout, val) VALUES
  ('Cc1ccc(F)c([C@@H](C)[C@H](NS(=O)(=O)c2ccc(Cl)c(C(=O)O)n2)c2n[nH]c(=O)o2)c1C [Example 215]', 'pIC50', 6.72),
  ('Cc1ccc(F)c([C@@H](C)[C@H](NS(=O)(=O)c2cccc3c2OCCC3(O)C(F)(F)F)c2n[nH]c(=O)o2)c1C (stereo partly shown) [Example 211A]', 'pIC50', 6.92),
  ('Cc1ccc(F)c([C@@H](C)[C@H](NS(=O)(=O)c2ccc(Cl)cc2C(=O)N(C)C)c2n[nH]c(=O)o2)c1C [Example 246]', 'pIC50', 6.30),
  ('Cc1ccc(F)c([C@@H](C)[C@H](NS(=O)(=O)c2cccc3c2OCCN3C(=O)C2CC2)c2n[nH]c(=O)o2)c1C [Example 99]', 'pIC50', 6.54),
  ('CCc1ccc(F)c([C@@H](C)[C@H](NS(=O)(=O)c2ccc(Br)cc2C(N)=O)c2n[nH]c(=O)o2)c1C [Example 96]', 'pIC50', 7.00),
  ('CC1CCc2cccc(C(C)[C@H](NS(=O)(=O)c3ccc(Br)cn3)c3n[nH]c(=O)o3)c21 (stereo partly shown) [Example 48]', 'pIC50', 6.22),
  ('Cc1ccc(F)c([C@@H](C)[C@H](NS(=O)(=O)c2ccc3c(c2)C(=O)CCC3)c2n[nH]c(=O)o2)c1C [Example 174]', 'pIC50', 6.46);
